# System Name: Amyloid-beta precursor protein (Homo sapiens, UniProt P05067)
# Sequence (P05067 whole entry): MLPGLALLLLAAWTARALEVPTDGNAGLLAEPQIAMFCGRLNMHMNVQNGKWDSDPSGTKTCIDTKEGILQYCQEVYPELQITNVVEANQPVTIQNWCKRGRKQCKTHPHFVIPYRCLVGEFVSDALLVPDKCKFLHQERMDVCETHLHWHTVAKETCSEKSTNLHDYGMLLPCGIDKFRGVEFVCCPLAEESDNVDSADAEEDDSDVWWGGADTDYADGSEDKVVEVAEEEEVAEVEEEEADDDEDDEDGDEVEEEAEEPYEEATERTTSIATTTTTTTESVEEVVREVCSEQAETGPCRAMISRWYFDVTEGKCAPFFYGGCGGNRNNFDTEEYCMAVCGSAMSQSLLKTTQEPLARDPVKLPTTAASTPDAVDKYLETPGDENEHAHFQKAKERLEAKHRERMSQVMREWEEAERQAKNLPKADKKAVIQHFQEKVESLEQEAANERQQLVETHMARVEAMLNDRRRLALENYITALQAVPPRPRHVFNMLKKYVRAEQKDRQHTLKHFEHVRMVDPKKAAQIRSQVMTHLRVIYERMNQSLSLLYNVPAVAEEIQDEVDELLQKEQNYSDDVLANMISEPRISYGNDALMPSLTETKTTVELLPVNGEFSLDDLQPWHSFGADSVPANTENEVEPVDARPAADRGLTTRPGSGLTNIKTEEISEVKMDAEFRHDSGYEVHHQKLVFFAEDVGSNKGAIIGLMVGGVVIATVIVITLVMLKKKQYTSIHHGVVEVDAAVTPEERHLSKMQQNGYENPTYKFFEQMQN
# Measurement Protocol: Inhibition of amyloid beta ((1 to 42) (unknown origin) oligomer assembly after 30 mins by biotinyl-streptavidin assay
Reported Metric: IC50

INSERT INTO assay_data (entry_smiles, assay_value) VALUES
  ('COc1ccc2cc(C(=O)CN3CCC(Cc4ccccc4)CC3)c(=O)oc2c1', '36 µM'),
  ('COc1ccc2cc(C(=O)CN3CCOCC3)c(=O)oc2c1', '29 µM'),
  ('COc1ccc2cc(C(=O)CN3CCN(Cc4ccccc4)CC3)c(=O)oc2c1', '36 µM'),
  ('COc1ccc2cc(C(=O)CN3CCN(c4ncccn4)CC3)c(=O)oc2c1', '1 µM'),
  ('COc1ccc2cc(C(=O)CN3CCN(c4ccccc4)CC3)c(=O)oc2c1', '21 µM'),
  ('COc1ccc2cc(C(=O)CN3CCC(c4ccccc4)CC3)c(=O)oc2c1', '14 µM');

###

IC50 values, listed per item
# System Name: Amyloid-beta precursor protein (Homo sapiens)
# Measurement Protocol: Inhibition of amyloid beta (1 to 42) (unknown origin) oligomer dissociation after 16 to 18 hrs by ELISA
Reported Metric: IC50 (µM)

INSERT INTO results (entry_smiles, system_name, reported_metric, unit_abbreviation, assay_value) VALUES
  ('COc1ccc2cc(C(=O)CN3CCC(c4ccccc4)CC3)c(=O)oc2c1', 'Amyloid-beta precursor protein (Homo sapiens)', 'IC50', 'µM', 29),
  ('COc1ccc2cc(C(=O)CN3CCN(c4ccccc4)CC3)c(=O)oc2c1', 'Amyloid-beta precursor protein (Homo sapiens)', 'IC50', 'µM', 6.5),
  ('COc1ccc2cc(C(=O)CN3CCOCC3)c(=O)oc2c1', 'Amyloid-beta precursor protein (Homo sapiens)', 'IC50', 'µM', 5),
  ('COc1ccc2cc(C(=O)CN3CCN(c4ncccn4)CC3)c(=O)oc2c1', 'Amyloid-beta precursor protein (Homo sapiens)', 'IC50', 'µM', 4);

###

# System Name: UniProt P22303
# Sequence (P22303 whole entry): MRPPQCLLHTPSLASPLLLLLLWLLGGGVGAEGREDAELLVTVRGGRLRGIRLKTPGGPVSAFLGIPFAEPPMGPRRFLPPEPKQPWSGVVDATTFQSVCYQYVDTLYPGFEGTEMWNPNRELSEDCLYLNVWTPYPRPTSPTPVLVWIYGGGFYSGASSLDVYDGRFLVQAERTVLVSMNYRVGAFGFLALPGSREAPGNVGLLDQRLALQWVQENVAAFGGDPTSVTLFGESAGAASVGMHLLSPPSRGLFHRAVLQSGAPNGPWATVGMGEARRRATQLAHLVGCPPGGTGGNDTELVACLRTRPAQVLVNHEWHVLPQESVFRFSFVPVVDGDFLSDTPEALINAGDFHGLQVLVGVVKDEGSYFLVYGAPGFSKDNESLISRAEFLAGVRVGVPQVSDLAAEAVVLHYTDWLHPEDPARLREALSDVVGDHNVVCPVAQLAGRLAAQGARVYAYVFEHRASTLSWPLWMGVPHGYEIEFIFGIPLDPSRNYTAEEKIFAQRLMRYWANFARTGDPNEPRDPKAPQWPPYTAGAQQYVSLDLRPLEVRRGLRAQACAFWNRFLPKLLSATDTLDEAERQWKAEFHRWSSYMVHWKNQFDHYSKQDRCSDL
Reported Metric: IC50 (µM)

INSERT INTO assay_data (entry_smiles, system_name, reported_metric, unit_abbreviation, assay_value) VALUES
  ('COc1ccc2cc(C(=O)CN3CCN(Cc4ccccc4)CC3)c(=O)oc2c1', 'UniProt P22303', 'IC50', 'µM', 1.76);

###

# System Name: Cholinesterase (Homo sapiens, UniProt P06276)
# Sequence (P06276 whole entry): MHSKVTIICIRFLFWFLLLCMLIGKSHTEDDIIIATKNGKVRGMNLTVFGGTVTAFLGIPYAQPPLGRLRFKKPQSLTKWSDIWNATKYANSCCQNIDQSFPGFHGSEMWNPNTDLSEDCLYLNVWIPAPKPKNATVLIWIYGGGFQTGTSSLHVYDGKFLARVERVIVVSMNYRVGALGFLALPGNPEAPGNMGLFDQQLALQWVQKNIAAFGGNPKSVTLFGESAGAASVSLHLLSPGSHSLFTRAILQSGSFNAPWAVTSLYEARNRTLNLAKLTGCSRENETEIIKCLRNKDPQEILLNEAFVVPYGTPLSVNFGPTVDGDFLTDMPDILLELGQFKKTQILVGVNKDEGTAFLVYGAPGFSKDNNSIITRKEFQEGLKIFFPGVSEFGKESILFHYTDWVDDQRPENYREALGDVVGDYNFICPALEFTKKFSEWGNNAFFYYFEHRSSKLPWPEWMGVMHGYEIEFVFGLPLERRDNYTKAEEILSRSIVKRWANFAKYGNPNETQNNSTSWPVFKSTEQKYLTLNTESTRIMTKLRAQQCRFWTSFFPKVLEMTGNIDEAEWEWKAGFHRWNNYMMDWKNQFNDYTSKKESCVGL
pIC50: −log10 of the molar value.
Reported Metric: pIC50

INSERT INTO assay_data (entry_smiles, reported_metric, assay_value) VALUES
  ('CCN(CC)Cc1cccc(C(=O)/C=C/c2ccc(-c3ccccc3)cc2)c1', 'pIC50', 5.08);

These entries and their values trace back to ChEMBL document CHEMBL2380294.
